Values were extracted from ChEMBL document CHEMBL3526090.

# protocol details: Cmax in BALB/cAnNCrlCrlj mouse plasma at 0.5 umol/kg administered intranasally
# Type: ADME, cell-free
# Set-up: dose 0.5 umol/kg, route nasal
# conditions: inhaled or intranasal
parameter: Cmax (nM)
The reply should be a number in nM, with the unit left off.

1) CO[C@@H]([C@@H]1OC(C(=O)O)=C[C@H](NC(=N)N)[C@H]1NC(C)=O)[C@H](O)CO : 478

Shift focus to the following entry.
For the molecule shown here, CCCCCCCC(=O)OC[C@@H](O)[C@@H](OC)[C@@H]1OC(C(=O)O)=C[C@H](NC(=N)N)[C@H]1NC(C)=O [LANINAMIVIR OCTANOATE] , give the reported Cmax. 242

###

# protocol details: Tmax in BALB/cAnNCrlCrlj mouse plasma treated with laninamivir octanoate at 0.5 umol/kg administered intranasally
# Type: ADME, cell-free
# conditions: inhaled or intranasal
parameter: Tmax (h)
// units = h; emit number, no label

For "CO[C@@H]([C@@H]1OC(C(=O)O)=C[C@H](NC(=N)N)[C@H]1NC(C)=O)[C@H](O)CO" , what is its reported Tmax? 1

###

# protocol details: Tmax in BALB/cAnNCrlCrlj mouse epithelial lining fluid at 0.5 umol/kg administered intranasally
# Type: ADME, tissue-based
# conditions: inhaled or intranasal
parameter: Tmax (min)
The answer is to be given in min; state only the numeric part.

1) CO[C@@H]([C@@H]1OC(C(=O)O)=C[C@H](NC(=N)N)[C@H]1NC(C)=O)[C@H](O)CO : 1.98

# query: Tmax of entry CCCCCCCC(=O)OC[C@@H](O)[C@@H](OC)[C@@H]1OC(C(=O)O)=C[C@H](NC(=N)N)[C@H]1NC(C)=O [LANINAMIVIR OCTANOATE] 1.98

###

# protocol details: AUClast in BALB/cAnNCrlCrlj mouse epithelial lining fluid at 0.5 umol/kg administered intranasally
# Format: ADME, tissue-based
# Design: dose 0.5 umol/kg, route nasal, time 0 - last
# conditions: inhaled or intranasal
Reported AUC(0-t) values follow for various compounds
# answer = value followed by unit

1. CCCCCCCC(=O)OC[C@@H](O)[C@@H](OC)[C@@H]1OC(C(=O)O)=C[C@H](NC(=N)N)[C@H]1NC(C)=O [LANINAMIVIR OCTANOATE] : 23.6 µM·h

Form field: reported AUC(0-t) of "CO[C@@H]([C@@H]1OC(C(=O)O)=C[C@H](NC(=N)N)[C@H]1NC(C)=O)[C@H](O)CO" 19.6 µM·h

###

# protocol details: Elimination half life in human treated with laninamivir octanoate administered intranasally
# Format: ADME, organism-based
# conditions: in vivo, inhaled or intranasal, read-out: beta t1/2 (converted)
parameter: half-life (h)
Report as a plain number; the unit h is understood.

Need half-life of "CO[C@@H]([C@@H]1OC(C(=O)O)=C[C@H](NC(=N)N)[C@H]1NC(C)=O)[C@H](O)CO" , thanks. 72

###

# AUC(0-t) annotations
# protocol details: AUClast in BALB/cAnNCrlCrlj mouse plasma at 0.5 umol/kg administered intranasally
# Type: ADME, cell-free
# Design: dose 0.5 umol/kg, time 0 - last, route nasal
# conditions: inhaled or intranasal
Give the value in µM·h but do not write µM·h after it.

1. CO[C@@H]([C@@H]1OC(C(=O)O)=C[C@H](NC(=N)N)[C@H]1NC(C)=O)[C@H](O)CO : 0.782

# context switch: different molecule, same AUC(0-t)
Given the molecule CCCCCCCC(=O)OC[C@@H](O)[C@@H](OC)[C@@H]1OC(C(=O)O)=C[C@H](NC(=N)N)[C@H]1NC(C)=O [LANINAMIVIR OCTANOATE] , what is its reported AUC(0-t)? 0.323

###

# protocol details: AUClast in BALB/cAnNCrlCrlj mouse epithelial lining fluid treated with laninamivir octanoate at 0.5 umol/kg administered intranasally
# Format: ADME, tissue-based
# Design: dose 0.5 umol/kg, time 0 - last, route nasal
# conditions: inhaled or intranasal
parameter: AUC(0-t) (µM·h)
Enter your answer as a number in µM·h; do not include the unit.

Report AUC(0-t) for "CO[C@@H]([C@@H]1OC(C(=O)O)=C[C@H](NC(=N)N)[C@H]1NC(C)=O)[C@H](O)CO" please. 26.5

###

# protocol details: Drug uptake in BALB/cAnNCrlCrlj mouse epithelial lining fluid at 0.5 umol/kg administered intranasally measured at 4 hrs by LC-MS/MS analysis
# Type: ADME, tissue-based
# conditions: inhaled or intranasal, read-out: Drug uptake
parameter: concentration at 4 h (nM)
The reply should contain only the number, in nM.

1. CO[C@@H]([C@@H]1OC(C(=O)O)=C[C@H](NC(=N)N)[C@H]1NC(C)=O)[C@H](O)CO : 51.3

Which measured concentration at 4 h value corresponds to CCCCCCCC(=O)OC[C@@H](O)[C@@H](OC)[C@@H]1OC(C(=O)O)=C[C@H](NC(=N)N)[C@H]1NC(C)=O [LANINAMIVIR OCTANOATE] ? 348

###

# protocol details: Elimination half life in BALB/cAnNCrlCrlj mouse epithelial lining fluid at 0.5 umol/kg administered intranasally
# Type: ADME, tissue-based
# conditions: BALB/cAnNCrlCrlj, epithelial lining fluid, inhaled or intranasal, 0.5 umol/kg, read-out: beta t1/2 (converted)
parameter: half-life (h)
Express the result in h but write the number alone.

Reported half-life, compound CO[C@@H]([C@@H]1OC(C(=O)O)=C[C@H](NC(=N)N)[C@H]1NC(C)=O)[C@H](O)CO [LANINAMIVIR] : ____ 25.4

###

# protocol details: Aqueous solubility of the compound
# Format: physicochemical
# conditions: buffer
parameter: solubility (µM)
Write the number in µM without appending the unit.

I am curious: what solubility value has been reported for CCCCCCCC(=O)OC[C@@H](O)[C@@H](OC)[C@@H]1OC(C(=O)O)=C[C@H](NC(=N)N)[C@H]1NC(C)=O [LANINAMIVIR OCTANOATE] ? 1270

###

# protocol details: Lipophilicity, log D of the compound at pH 7.4
# Assay type: physicochemical
# conditions: buffer
parameter: logD
Number only, no unit.

1. CCCCCCCC(=O)OC[C@@H](O)[C@@H](OC)[C@@H]1OC(C(=O)O)=C[C@H](NC(=N)N)[C@H]1NC(C)=O [LANINAMIVIR OCTANOATE] : -0.01

Read the next record carefully.
Name the reported logD value associated with the molecule "CO[C@@H]([C@@H]1OC(C(=O)O)=C[C@H](NC(=N)N)[C@H]1NC(C)=O)[C@H](O)CO" -2.18

###

# protocol details: Cmax in BALB/cAnNCrlCrlj mouse epithelial lining fluid at 0.5 umol/kg administered intranasally
# Assay type: ADME, tissue-based
# Parameters: dose 0.5 umol/kg, route nasal
# conditions: inhaled or intranasal
parameter: Cmax (µM)
Please reply with the bare figure in µM and do not write the unit itself.

1) CCCCCCCC(=O)OC[C@@H](O)[C@@H](OC)[C@@H]1OC(C(=O)O)=C[C@H](NC(=N)N)[C@H]1NC(C)=O [LANINAMIVIR OCTANOATE] : 20.4

Kindly consider the entry below.
What Cmax value was documented for this compound, CO[C@@H]([C@@H]1OC(C(=O)O)=C[C@H](NC(=N)N)[C@H]1NC(C)=O)[C@H](O)CO [LANINAMIVIR] ? 19.9

###

# protocol details: Drug uptake in BALB/cAnNCrlCrlj mouse epithelial lining fluid treated with laninamivir octanoate at 0.5 umol/kg administered intranasally measured at 4 hrs by LC-MS/MS analysis
# Type: ADME
# conditions: inhaled or intranasal, read-out: Drug uptake
parameter: concentration at 4 h (nM)
All answers are understood in nM, so give the number only.

Which concentration at 4 h is listed for "CO[C@@H]([C@@H]1OC(C(=O)O)=C[C@H](NC(=N)N)[C@H]1NC(C)=O)[C@H](O)CO" ? 1150

###

# protocol details: Tmax in BALB/cAnNCrlCrlj mouse lung treated with laninamivir octanoate at 0.5 umol/kg administered intranasally
# Format: ADME
# conditions: inhaled or intranasal
parameter: Tmax (h)
Could you give me the number in h? Just the number is fine.

Quick check: Tmax of CO[C@@H]([C@@H]1OC(C(=O)O)=C[C@H](NC(=N)N)[C@H]1NC(C)=O)[C@H](O)CO [LANINAMIVIR] ? 6

###

# protocol details: Tmax in BALB/cAnNCrlCrlj mouse epithelial lining fluid treated with laninamivir octanoate at 0.5 umol/kg administered intranasally
# Format: ADME, tissue-based
# conditions: inhaled or intranasal
parameter: Tmax (h)
Kindly answer with a numeric value in h, unit omitted.

Field request: Tmax | item: CO[C@@H]([C@@H]1OC(C(=O)O)=C[C@H](NC(=N)N)[C@H]1NC(C)=O)[C@H](O)CO [LANINAMIVIR] 1

###

# protocol details: Elimination half life in BALB/cAnNCrlCrlj mouse lung at 0.5 umol/kg administered intranasally
# Format: ADME, tissue-based
# conditions: BALB/cAnNCrlCrlj, lung, inhaled or intranasal, 0.5 umol/kg, read-out: beta t1/2 (converted)
parameter: half-life (h)
Report only the number, with the unit h understood.

Given the entry CO[C@@H]([C@@H]1OC(C(=O)O)=C[C@H](NC(=N)N)[C@H]1NC(C)=O)[C@H](O)CO [LANINAMIVIR] , report its measured half-life. 25
